Molecular target: T1, recombinant human MASP1 active protease (amino acids 297-699, C-terminal His Tag) (human, UniProt P48740 297-699)
T1 sequence: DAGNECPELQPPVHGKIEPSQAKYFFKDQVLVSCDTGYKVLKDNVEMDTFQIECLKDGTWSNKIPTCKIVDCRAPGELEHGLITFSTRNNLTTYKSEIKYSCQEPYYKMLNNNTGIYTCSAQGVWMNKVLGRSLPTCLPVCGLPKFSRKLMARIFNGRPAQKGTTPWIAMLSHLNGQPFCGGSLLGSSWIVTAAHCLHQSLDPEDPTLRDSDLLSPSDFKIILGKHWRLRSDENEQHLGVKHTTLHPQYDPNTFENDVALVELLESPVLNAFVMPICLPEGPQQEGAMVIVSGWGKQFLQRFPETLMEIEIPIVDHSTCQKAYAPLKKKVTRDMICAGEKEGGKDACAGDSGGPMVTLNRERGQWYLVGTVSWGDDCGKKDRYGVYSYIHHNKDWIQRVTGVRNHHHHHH
Assay: cell-based or functional assay
Bridge positions count the residues as written; N and C are the ends. Square brackets hold non-standard residues; d marks the D form. Ends that are not written are not given here. Oic = O=C(O)[C@@H]1C[C@@H]2CCCC[C@@H]2N1; Pen = CC(C)(S)[C@H](N)C(=O)O; Sar = CNCC(=O)O
ENDPOINT: human MASP1 IC50 (nM)
# number only, unit nM dropped from output

>>> measured_number("AICSRSLP[Oic]I[Pen]I-NH2 (disulfide 3-11; N-terminus assumed; SMILES CC[C@H](C)[C@H](NC(=O)[C@H]1NC(=O)[C@H]([C@@H](C)CC)NC(=O)[C@@H]2C[C@@H]3CCCC[C@@H]3N2C(=O)[C@@H]2CCCN2C(=O)[C@H](CC(C)C)NC(=O)[C@H](CO)NC(=O)[C@H](CCCNC(=N)N)NC(=O)[C@H](CO)NC(=O)[C@@H](NC(=O)[C@@H](NC(=O)[C@H](C)N)[C@@H](C)CC)CSSC1(C)C)C(N)=O) [AIC+SRSLP-(Oic)-I-(Pen)+I-NH2]")
2.1

Now for another entry.
Note human MASP1 IC50 for the binder shown: [Sar]ICSRSLP[Oic]I[Pen]IPD-OH (disulfide 3-11; N-terminus assumed; SMILES CC[C@H](C)[C@H](NC(=O)CNC)C(=O)N[C@H]1CSSC(C)(C)[C@@H](C(=O)N[C@H](C(=O)N2CCC[C@H]2C(=O)N[C@@H](CC(=O)O)C(=O)O)[C@@H](C)CC)NC(=O)[C@H]([C@@H](C)CC)NC(=O)[C@@H]2C[C@@H]3CCCC[C@@H]3N2C(=O)[C@@H]2CCCN2C(=O)[C@H](CC(C)C)NC(=O)[C@H](CO)NC(=O)[C@H](CCCNC(=N)N)NC(=O)[C@H](CO)NC1=O) [((N-Me)G)-IC+SRSLP-(Oic)-I-(Pen)+IPD-OH] 2.5
